Target: T1, TNFR1 (Homo sapiens, UniProt P19438)
T1 chain: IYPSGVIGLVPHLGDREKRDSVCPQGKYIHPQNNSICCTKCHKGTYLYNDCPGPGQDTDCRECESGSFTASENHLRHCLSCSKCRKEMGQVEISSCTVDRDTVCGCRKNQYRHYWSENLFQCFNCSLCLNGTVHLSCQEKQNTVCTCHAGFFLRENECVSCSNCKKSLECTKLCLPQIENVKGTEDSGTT
Experiment: yeast display SC50
Assignment: determine reported apparent Kd (screen) for the given binders.
Number in nM, nothing else.

Enquiry: Look up apparent Kd (screen) for this binder: M58A (designed binder) SMEEEVEKAAKEYEKKKKEAIEKHLEKLKAKDKEAAERFLKELEEAAKEYAKDEAKTASEEEAKRRAKKYKEKVLLSELSEEEQKEIKEAEEKLVRTILKYVEEAAK
Return: 10.4

Enquiry: Same question, E78F (designed binder) SMEEEVEKAAKEYEKKKKEAIEKHLEKLKAKDKEAAERFLKELEEAAKEYAKDEAKTMSEEEAKRRAKKYKEKVLLSFLSEEEQKEIKEAEEKLVRTILKYVEEAAK this time
Return: 0.49

Enquiry: What do you get for A106L (designed binder) SMEEEVEKAAKEYEKKKKEAIEKHLEKLKAKDKEAAERFLKELEEAAKEYAKDEAKTMSEEEAKRRAKKYKEKVLLSELSEEEQKEIKEAEEKLVRTILKYVEEALK ?
Return: 2.25

Enquiry: Would you mind doing A30R (designed binder) SMEEEVEKAAKEYEKKKKEAIEKHLEKLKRKDKEAAERFLKELEEAAKEYAKDEAKTMSEEEAKRRAKKYKEKVLLSELSEEEQKEIKEAEEKLVRTILKYVEEAAK as well?
Return: 0.79

Enquiry: // repeat for K100C (designed binder) SMEEEVEKAAKEYEKKKKEAIEKHLEKLKAKDKEAAERFLKELEEAAKEYAKDEAKTMSEEEAKRRAKKYKEKVLLSELSEEEQKEIKEAEEKLVRTILCYVEEAAK and report
Return: 3

Enquiry: Same question for A46C (designed binder) SMEEEVEKAAKEYEKKKKEAIEKHLEKLKAKDKEAAERFLKELEECAKEYAKDEAKTMSEEEAKRRAKKYKEKVLLSELSEEEQKEIKEAEEKLVRTILKYVEEAAK please.
Return: 1.86

Enquiry: Now try E54F (designed binder) SMEEEVEKAAKEYEKKKKEAIEKHLEKLKAKDKEAAERFLKELEEAAKEYAKDFAKTMSEEEAKRRAKKYKEKVLLSELSEEEQKEIKEAEEKLVRTILKYVEEAAK .
Return: 0.405

Enquiry: What do you have for R66C (designed binder) SMEEEVEKAAKEYEKKKKEAIEKHLEKLKAKDKEAAERFLKELEEAAKEYAKDEAKTMSEEEAKRCAKKYKEKVLLSELSEEEQKEIKEAEEKLVRTILKYVEEAAK ?
Return: 5.84
